pKi: −log10 of the molar value.
// pKi collected for UniProtKB Q03614
Sequence (Q03614 20-615): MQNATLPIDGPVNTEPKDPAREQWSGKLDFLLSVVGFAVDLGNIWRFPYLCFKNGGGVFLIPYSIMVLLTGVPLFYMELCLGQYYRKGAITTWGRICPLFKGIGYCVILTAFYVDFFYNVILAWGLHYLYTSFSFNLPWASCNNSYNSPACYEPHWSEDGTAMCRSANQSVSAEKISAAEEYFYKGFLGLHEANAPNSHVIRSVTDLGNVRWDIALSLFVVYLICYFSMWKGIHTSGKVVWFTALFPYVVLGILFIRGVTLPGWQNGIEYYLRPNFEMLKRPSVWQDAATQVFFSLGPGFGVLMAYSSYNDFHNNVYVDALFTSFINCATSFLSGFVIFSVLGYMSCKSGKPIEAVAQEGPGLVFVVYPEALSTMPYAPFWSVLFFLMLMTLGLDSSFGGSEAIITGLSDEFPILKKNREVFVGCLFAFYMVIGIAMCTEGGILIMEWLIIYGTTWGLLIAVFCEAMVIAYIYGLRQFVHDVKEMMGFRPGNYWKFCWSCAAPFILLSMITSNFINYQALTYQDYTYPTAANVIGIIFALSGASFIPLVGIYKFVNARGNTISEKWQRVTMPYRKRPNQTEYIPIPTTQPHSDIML

{"MOLECULE": "OC1(c2ccc(Cl)cc2)c2ccccc2C2=NCCN21 (stereo not drawn) [mazindol]", "pKi": 8.10}
{"MOLECULE": "NCCc1ccc(O)cc1 [Tyramine]", "pKi": 6.08}
{"MOLECULE": "Fc1ccc(C(OCCN2CCN(CCCc3ccccc3)CC2)c2ccc(F)cc2)cc1 [GBR12909]", "pKi": 7.15}
{"MOLECULE": "COC(=O)[C@H]1[C@@H](OC(=O)c2ccccc2)C[C@@H]2CC[C@H]1N2C [cocaine]", "pKi": 5.46}
{"MOLECULE": "NCCc1ccc(O)c(O)c1 [DA, Dopamine]", "pKi": 6.84}
{"MOLECULE": "CNCCC(Oc1ccccc1OC)c1ccccc1 (stereo not drawn) [nisoxetine]", "pKi": 8.52}
